Read-out: Cytochrome P450 4A22 (Homo sapiens)
Assay: LTEA_HepaRG_CYP4A22: Life Technologies and Expression Analysis (LTEA) Assay for Cytochrome P450 4A22 (CYP4A22) using HepaRG (AID 2283495)
Details: mRNA level, 48 h; actives raise or lower the signal
The source made the active and inactive calls. How the source made its calls: active means hit-call score of the fitted dose curve at least 0.9, where 1 is the maximum; inactive means score below 0.9.
Outcome codes: yes (1) (active), no (0) (inactive)

[[record]]
compound = "CCC(C)(C)C1CCC(O)CC1 (configuration not stated)"
cat = "no (0)"

[[record]]
compound = "C[C@@H]1C[C@H]2[C@@H]3CCC4=CC(=O)C=C[C@]4(C)[C@@]3(F)[C@@H](O)C[C@]2(C)[C@@]1(O)C(=O)COP(=O)(O)O"
cat = "no (0)"

[[record]]
compound = "N#C[C@@H]1CC(F)(F)CN1C(=O)CNC1CC2CCC(C1)N2c1ncccn1 (some centres not stated)"
cat = "no (0)"

[[record]]
compound = "CC[C@H](c1ccc(O)cc1)[C@@H](CC)c1ccc(O)cc1"
cat = "no (0)"

[[record]]
compound = "COCC(C)OCC(C)O (configuration not stated)"
cat = "no (0)"

[[record]]
compound = "CC(=O)CC(C)(C)O"
cat = "no (0)"

[[record]]
compound = "CC(C)(C)c1ccc(O)c(C(C)(C)C)c1"
cat = "no (0)"

[[record]]
compound = "CCCCCCC(=O)O"
cat = "no (0)"

[[record]]
compound = "c1ccc2cc3c(ccc4ccccc43)cc2c1"
cat = "yes (1)"

[[record]]
compound = "OCCC(F)(F)C(F)(F)C(F)(F)C(F)(F)C(F)(F)C(F)(F)F"
cat = "no (0)"

[[record]]
compound = "CCN(CC)CCNc1ccc(CNC=O)c2sc3ccc(OC)cc3c(=O)c12"
cat = "yes (1)"

[[record]]
compound = "CCC(=C(c1ccc(O)cc1)c1ccc(OCCN(C)C)cc1)c1ccccc1"
cat = "no (0)"

[[record]]
compound = "CCCCOCCO"
cat = "no (0)"

[[record]]
compound = "CCCOc1sc(C(=O)N2CCC(c3cc(CN)ccc3F)CC2)c(C)c1Br"
cat = "no (0)"

[[record]]
compound = "Cc1oc(-c2ccccc2)nc1CCOc1ccc(C[C@H](Nc2ccccc2C(=O)c2ccccc2)C(=O)O)cc1"
cat = "yes (1)"

[[record]]
compound = "C#C[C@]1(O)CC[C@H]2[C@@H]3CCC4=CC(=O)CC[C@@H]4[C@H]3CC[C@@]21C"
cat = "no (0)"

[[record]]
compound = "O=[N+]([O-])c1ccc(O)cc1"
cat = "no (0)"


The reported measurements were obtained from PubChem BioAssay (EPA / NIEHS).
